procedure details: AUC (0 to infinity) in mouse at 10 mg/kg, po measured up to 24 hrs by LC-MS/MS analysis
Format: ADME, organism-based
Parameters: route oral, dose 10 mg/kg, time <=24
condition details: in vivo
reported property: AUC(0-inf) (ng·h/mL)
Only the number, expressed in ng·h/mL, is required.

QUERY: Give the measured AUC(0-inf) of `CCN(C(=O)C1CC1)c1cc(-c2ccc(N3CCN(CC4CC4)CC3)nc2C)cc(C(=O)NCc2c(C)cc(C)[nH]c2=O)c1C` .
RESULT: 1000

====

procedure details: AUC (0 to t) in mouse at 1 mg/kg, iv measured up to 24 hrs by LC-MS/MS analysis
Assay type: ADME, organism-based
Set-up: route intravenous, dose 1 mg/kg, time <=24
condition details: in vivo
reported property: AUC(0-t) at 24 h

QUERY: Value lookup for AUC(0-t) at 24 h; key = `CCN(C(=O)C1CC1)c1cc(-c2ccc(N3CCN(CC4CC4)CC3)nc2C)cc(C(=O)NCc2c(C)cc(C)[nH]c2=O)c1C`
RESULT: 366 ng·h/mL

All values here come from ChEMBL document CHEMBL4831544.
